- measured_target: recombinant guanylate cyclase reporter cell line (Rattus norvegicus, UniProt P19686+P20595)
- Construct: expressed in transfected cells
- Sequence (P19686 1-690): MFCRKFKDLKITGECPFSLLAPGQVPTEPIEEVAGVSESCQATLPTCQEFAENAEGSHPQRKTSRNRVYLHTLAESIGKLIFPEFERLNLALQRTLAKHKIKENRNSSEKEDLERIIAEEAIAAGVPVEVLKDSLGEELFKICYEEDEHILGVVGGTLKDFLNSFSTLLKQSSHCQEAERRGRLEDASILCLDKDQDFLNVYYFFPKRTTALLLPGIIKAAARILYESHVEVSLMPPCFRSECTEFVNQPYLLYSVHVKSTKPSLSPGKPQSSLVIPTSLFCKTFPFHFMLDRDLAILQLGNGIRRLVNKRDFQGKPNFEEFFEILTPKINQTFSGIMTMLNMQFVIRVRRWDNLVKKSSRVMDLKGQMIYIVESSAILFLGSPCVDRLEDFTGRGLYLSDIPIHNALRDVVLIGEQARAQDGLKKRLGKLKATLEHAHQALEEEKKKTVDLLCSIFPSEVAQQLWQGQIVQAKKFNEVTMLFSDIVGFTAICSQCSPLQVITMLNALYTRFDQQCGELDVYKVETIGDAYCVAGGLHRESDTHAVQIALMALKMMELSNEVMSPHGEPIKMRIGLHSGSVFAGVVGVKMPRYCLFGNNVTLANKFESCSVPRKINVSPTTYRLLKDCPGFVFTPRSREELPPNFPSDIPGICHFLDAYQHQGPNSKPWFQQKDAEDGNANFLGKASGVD
- Sequence (P20595 1-619): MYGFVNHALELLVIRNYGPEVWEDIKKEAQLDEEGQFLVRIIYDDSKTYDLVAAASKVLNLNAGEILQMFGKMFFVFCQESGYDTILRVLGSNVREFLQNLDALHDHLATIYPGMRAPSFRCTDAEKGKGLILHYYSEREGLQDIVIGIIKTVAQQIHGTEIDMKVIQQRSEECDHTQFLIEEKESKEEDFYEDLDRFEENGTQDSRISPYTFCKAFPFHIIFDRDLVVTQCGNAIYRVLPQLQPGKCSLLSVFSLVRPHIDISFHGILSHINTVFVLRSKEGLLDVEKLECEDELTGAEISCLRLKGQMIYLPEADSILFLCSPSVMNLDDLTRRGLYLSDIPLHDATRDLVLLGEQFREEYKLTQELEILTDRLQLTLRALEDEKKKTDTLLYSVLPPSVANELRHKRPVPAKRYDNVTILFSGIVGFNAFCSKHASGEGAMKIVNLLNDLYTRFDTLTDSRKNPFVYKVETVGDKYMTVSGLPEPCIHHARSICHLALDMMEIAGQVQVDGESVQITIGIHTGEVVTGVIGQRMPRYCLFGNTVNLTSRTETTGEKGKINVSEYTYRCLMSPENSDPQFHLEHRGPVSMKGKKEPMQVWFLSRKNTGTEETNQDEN
- procedure_text: Effect on a recombinant guanylate cyclase reporter cell line
- Format: cell-based
- recorded_conditions: MEC = minimum effective concentration; in some cases mean values for individual determinations
- Method: B-2. Effect on a Recombinant Guanylate Cyclase Reporter Cell Line The cellular action of the compounds of the invention is determined using a recombinant guanylate cyclase reporter cell line, as described in F. Wunder et al., Anal. Biochem. 339, 104-112 (2005). Representative MEC values (MEC=minimum effective concentration) for the compounds of the invention are shown in the table below (in some cases as mean values for individual determinations): […]
test_readout: log10 of MEC (log10 of the value in µM)
Values below are the log10 of the recorded MEC, with µM as the unit.

Below are worked cases with known answers.
compound | log10 of MEC
Cc1cn2c(C(=O)NCC(C)(N)CCC(F)(F)F)c(C)nc2c(OCc2c(F)cccc2F)n1 (single isomer, unassigned; enantiomer b) | -0.52
Cc1cn2c(C(=O)NCC(C)(N)CC(F)F)c(C)nc2c(OCc2c(F)cccc2F)n1 (single isomer, unassigned; enantiomer a) [Example 41] | -0.19
Cc1cn2c(C(=O)NC3(c4ccc(F)c(F)c4)CC3)c(C)nc2c(OCc2c(F)cccc2F)n1 | 0.00
Cc1cn2c(C(=O)NCCC3(O)CCCC3)c(C)nc2c(OCc2c(F)cccc2F)n1 | 0.00

Documented log10 of MEC of CCCCC(NC(=O)c1c(C)nc2c(OCc3c(F)cccc3F)nc(C)cn12)C(C)(C)O (single isomer, unassigned; ent-8) : -0.52

Documented log10 of MEC of `CC[C@](C)(N)CNC(=O)c1c(C)nc2c(OCc3c(F)cccc3F)nc(C)cn12` : -0.11

Documented log10 of MEC of `Cc1cn2c(C(=O)NNc3ccc(F)cc3)c(C)nc2c(OCc2c(F)cccc2F)n1` : -0.52

Documented log10 of MEC of Cc1cn2c(C(=O)NC(CCCC(F)(F)F)C(C)(C)O)c(C)nc2c(OCc2c(F)cccc2F)n1 (single isomer, unassigned; ent-8) : 0.48

Documented log10 of MEC of CCCC(C)(N)CNC(=O)c1c(C)nc2c(OCc3c(F)cccc3F)nc(C)cn12 (single isomer, unassigned; enantiomer b) : -0.70

Documented log10 of MEC of `Cc1cn2c(C(=O)NCCN(CC(F)F)C3CC3)c(C)nc2c(OCc2c(F)cccc2F)n1` : 0.48

Documented log10 of MEC of `Cc1cn2c(C(=O)N[C@H]3CCOC3=O)c(C)nc2c(OCc2c(F)cccc2F)n1` : 0.48

Documented log10 of MEC of Cc1cn2c(C(=O)NC(C#N)c3ccc(Cl)cc3)c(C)nc2c(OCc2c(F)cccc2F)n1 (racemic) : 1.00
